Target: T1, human CD81 on CD81-expressing cells (Jurkat E6.1, human PBMC, Ramos) (human, UniProt P60033 1-236)
T1 sequence: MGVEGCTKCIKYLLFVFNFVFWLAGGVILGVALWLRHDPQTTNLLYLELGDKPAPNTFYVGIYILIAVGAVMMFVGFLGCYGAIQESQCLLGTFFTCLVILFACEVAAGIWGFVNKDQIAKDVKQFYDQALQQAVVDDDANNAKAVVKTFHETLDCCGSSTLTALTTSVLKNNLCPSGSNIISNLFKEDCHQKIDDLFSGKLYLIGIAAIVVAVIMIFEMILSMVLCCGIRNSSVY
Test: cell-based or functional assay
Below: a set of entries, each annotated with reported Jurkat chemotaxis (% of control IgG4) at 0.1 µg/mL.
Report only the number, with the unit % understood.

002-F05 (antibody, human IgG4 S228P, lambda, V domains shown, IgG4 S228P) VH: EVQLLESGGGLVQPGGSLRLSCAASGFTFSSNYMSWVRQAPGKGLEWVSYISSSSTYTDYADSVKGRFTISRDNSKNTLYLQMNSLRAEDTAVYYCARYSYGRDDFDYWGQGTLVTVSS VL: QSVLTQPASASGTPGQRVTISCTGSTSNIGAGYDTHWYQQLPGTAPKLLIYGNSNRPSGVPDRFSGSKSGTSASLAISGLRSEDEADYYCQSYDTNLNVWVFGGGTKLTVLG ... 27
002-A07 S115A (antibody, human IgG4 S228P, lambda, V domains shown, IgG4 S228P; glycosylation site mutant of 002-A07 VL) VH: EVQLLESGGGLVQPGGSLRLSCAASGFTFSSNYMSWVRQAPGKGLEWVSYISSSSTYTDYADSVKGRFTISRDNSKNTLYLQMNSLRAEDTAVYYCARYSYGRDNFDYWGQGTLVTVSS VL: QSVLTQPPSASGTPGQRVTISCTGSTSNIGAGYDTHWYQQLPGTAPKLLIYGNSNRPSGVPDRFSGSKSGTSASLAISGLRSEDEADYYCQSYDTNLAVWVFGGGTKLTVLG ... 32

// moving on: another record for Jurkat chemotaxis (% of control IgG4) at 0.1 µg/mL
The reported value for 003-A10 (antibody, human IgG4 S228P, lambda, V domains shown, IgG4 S228P) VH: EVQLLESGGGLVQPGGSLRLSCAASGFTFSSNYMSWVRQAPGKGLEWVSYISSSSTYTDYADSVKGRFTISRDNSKNTLYLQMNSLRAEDTAVYYCARYSYGRDTFDYWGQGTLVTVSS VL: QSVLTQPFSASGTPGQRVTISCTGSTSNIGAGYDTHWYQQLPGTAPKLLIYGNSNRPSGVPDRFSGSKSGTSASLAISGLRSEDEADYYCQSYDTNLSVWVFGGGTKLTVLG in terms of Jurkat chemotaxis (% of control IgG4) at 0.1 µg/mL is 15
